Recorded measurements of EC50, one per entry
Tested on: Plasmodium falciparum
Assay: ST_JUDE: Cytotoxicity against Plasmodium falciparum W2
Assay type: functional, organism-based
quantityMeasured: EC50 (nM)

compound: COc1ccc(C2CC3=NC(C)=C(C(=O)OC(C)C)C(c4ccccc4Cl)C3=C(O)C2)cc1OC (stereo not given)
targetSystem: Plasmodium falciparum
quantityMeasured: EC50
boundOperator: =
recordedValue: 40.6

compound: C=CCN1C=CC=C/C1=C\c1sc2ccccc2[n+]1C
targetSystem: Plasmodium falciparum
quantityMeasured: EC50
boundOperator: =
recordedValue: 6160

compound: CCc1ccccc1NC(=O)C1c2ccccc2C(=O)N(CC(C)C)C1c1cccs1 (stereo not given)
targetSystem: Plasmodium falciparum
quantityMeasured: EC50
boundOperator: =
recordedValue: 679

compound: CCCCCOc1ccc(N(C(C)=O)C2=C(N3CCOCC3)C(=O)c3ccccc3C2=O)cc1
targetSystem: Plasmodium falciparum
quantityMeasured: EC50
boundOperator: >
recordedValue: 9290

compound: O=C(c1ccccc1)N1CCN(c2ccccc2NC(=O)C(Cl)(Cl)Cl)CC1
targetSystem: Plasmodium falciparum
quantityMeasured: EC50
boundOperator: >
recordedValue: 8650

compound: CCOC(=O)C1=C(C)N=c2s/c(=C/c3ccccc3O)c(=O)n2C1c1ccccc1 (stereo not given)
targetSystem: Plasmodium falciparum
quantityMeasured: EC50
boundOperator: =
recordedValue: 2210

compound: Oc1ccc(Br)cc1CN1CCN(C2CC3CCC2C3)CC1 (stereo not given)
targetSystem: Plasmodium falciparum
quantityMeasured: EC50
boundOperator: =
recordedValue: 519

compound: c1ccc(CCNc2ccnc3cc4ccccc4cc23)cc1
targetSystem: Plasmodium falciparum
quantityMeasured: EC50
boundOperator: =
recordedValue: 674

compound: CCN1/C(=C/c2cccc[n+]2C)C=Cc2cc(C)ccc21
targetSystem: Plasmodium falciparum
quantityMeasured: EC50
boundOperator: >
recordedValue: 8270

compound: CCc1nc2nc(C)cc(Nc3ccc(I)cc3)n2n1
targetSystem: Plasmodium falciparum
quantityMeasured: EC50
boundOperator: =
recordedValue: 595

compound: CCO/C(O)=C1\C(C)=NC2=C(C(=O)CC(c3ccc(OC)c(OC)c3)C2)C1c1ccc([N+](=O)[O-])cc1 (stereo not given)
targetSystem: Plasmodium falciparum
quantityMeasured: EC50
boundOperator: =
recordedValue: 239

compound: CCN(CC)c1ccc(/C=C/c2ccc3ccc(OC)cc3[n+]2CC)cc1
targetSystem: Plasmodium falciparum
quantityMeasured: EC50
boundOperator: =
recordedValue: 304

compound: OC(CNC1CCCC1)Cn1c2ccc(Cl)cc2c2cc(Cl)ccc21 (stereo not given)
targetSystem: Plasmodium falciparum
quantityMeasured: EC50
boundOperator: =
recordedValue: 572

compound: CC(C)NCC(O)Cn1c2ccc(Cl)cc2c2cc(Cl)ccc21 (stereo not given)
targetSystem: Plasmodium falciparum
quantityMeasured: EC50
boundOperator: =
recordedValue: 122

compound: Cc1cccc(CN2CCC(CNC(=S)Nc3ccc4nc(N5CCN(C)CC5)cc(C)c4c3)CC2)c1
targetSystem: Plasmodium falciparum
quantityMeasured: EC50
boundOperator: =
recordedValue: 2230

compound: C#CC[n+]1ccn2c(C)ccc2c1CC
targetSystem: Plasmodium falciparum
quantityMeasured: EC50
boundOperator: =
recordedValue: 3440

compound: Cc1ccc(NC(=O)C2c3ccccc3C(=O)N(CC(C)C)C2c2cccs2)c(Cl)c1 (stereo not given)
targetSystem: Plasmodium falciparum
quantityMeasured: EC50
boundOperator: =
recordedValue: 849

compound: CCCCCCn1c(=N)n(CC(O)COc2ccccc2C)c2ccccc21 (stereo not given)
targetSystem: Plasmodium falciparum
quantityMeasured: EC50
boundOperator: =
recordedValue: 1290

compound: COc1ccc(C2CC3=NC(C)=C(C(=O)OC(C)C)C(c4ccccc4OC)C3=C(O)C2)cc1OC (stereo not given)
targetSystem: Plasmodium falciparum
quantityMeasured: EC50
boundOperator: =
recordedValue: 240

compound: CCO/C(O)=C1\C(C)=NC2=C(C(=O)CC(c3ccc(OC)c(OC)c3)C2)C1c1ccccc1C (stereo not given)
targetSystem: Plasmodium falciparum
quantityMeasured: EC50
boundOperator: =
recordedValue: 54.9

This collection of values is drawn from ChEMBL document CHEMBL1154198.
